- Target Or Test System: T1, QP098 (cyno SIRPα (I7G9Z7) ECD(E31-R369)-flag-his) (cynomolgus)
- T1 construct: the construct carries flag and his tags; also called cynoSIRPα (ECD); cynomolgus SIRPα
- T1 chain: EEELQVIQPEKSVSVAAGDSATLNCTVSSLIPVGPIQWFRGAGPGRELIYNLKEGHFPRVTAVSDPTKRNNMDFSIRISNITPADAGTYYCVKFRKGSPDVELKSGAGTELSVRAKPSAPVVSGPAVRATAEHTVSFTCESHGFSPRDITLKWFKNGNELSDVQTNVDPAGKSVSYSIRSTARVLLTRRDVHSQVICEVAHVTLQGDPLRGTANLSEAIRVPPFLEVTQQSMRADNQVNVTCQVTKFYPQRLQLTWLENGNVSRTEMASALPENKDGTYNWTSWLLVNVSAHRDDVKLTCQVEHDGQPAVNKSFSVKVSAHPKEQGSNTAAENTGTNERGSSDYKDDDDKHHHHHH
- Assay: binding ELISA, antigen coated
Below, each entry is listed alongside its reported EC50.
Write down the numeric answer in ng/mL and omit the unit.

Binder	EC50 / ng/mL
QP2561594 (antibody, human IgG4, V domains shown, Human IgG4 heavy constant region and kappa CL) VH: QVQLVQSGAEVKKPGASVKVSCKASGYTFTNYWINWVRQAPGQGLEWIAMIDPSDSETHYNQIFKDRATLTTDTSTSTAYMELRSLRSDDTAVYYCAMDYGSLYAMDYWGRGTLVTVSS VL: DIVLTQSPDSLAVSLGERATINCRASKSVSSSGYNYIFWYQQKPGQPPKLLIYLASNLDSGVPDRFSGSGSGTDFTLTISSLQAEDVAVYYCQHSRDLPTFGQGTKLEIK	1.13

Field: next binder
Please give the documented EC50 of QP2561589 (antibody, human IgG4, V domains shown, Human IgG4 heavy constant region and kappa CL) VH: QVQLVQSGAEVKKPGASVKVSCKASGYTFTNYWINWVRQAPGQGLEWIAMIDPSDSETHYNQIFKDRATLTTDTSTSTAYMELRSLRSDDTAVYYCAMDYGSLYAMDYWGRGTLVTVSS VL: DIVLTQSPDSLAVSLGERATINCRASKSVSSSGYNYIFWYQQKPGQPPKLLIYLASNLDSGVPDRFSGSGSGTDFTLTISSLQAEDVAVYYCQESWELPTFGQGTKLEIK
1.6
